Tested target: Peroxisome proliferator-activated receptor delta (Homo sapiens, UniProt Q03181)
Sequence (Q03181 whole entry): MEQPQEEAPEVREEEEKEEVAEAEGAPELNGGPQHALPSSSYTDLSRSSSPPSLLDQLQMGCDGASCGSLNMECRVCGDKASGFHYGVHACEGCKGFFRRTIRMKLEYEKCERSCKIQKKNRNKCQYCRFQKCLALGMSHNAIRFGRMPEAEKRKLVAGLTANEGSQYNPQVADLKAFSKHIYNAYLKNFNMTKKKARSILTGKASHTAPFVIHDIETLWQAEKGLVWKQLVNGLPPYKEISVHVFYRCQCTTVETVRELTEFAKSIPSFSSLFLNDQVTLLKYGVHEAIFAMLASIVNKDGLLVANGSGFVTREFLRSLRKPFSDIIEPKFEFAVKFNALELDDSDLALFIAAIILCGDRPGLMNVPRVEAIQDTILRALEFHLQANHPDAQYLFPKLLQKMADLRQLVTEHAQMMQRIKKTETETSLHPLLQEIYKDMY
Method description: Agonist activity at human PPARdelta expressed in HepG2 cells co-transfected with PPRE3-TK-luc assessed as beta-galactosidase activity after 20 to 22 hrs by luciferase based transactivation assay
Format: functional, cell-based
Metric: pEC50
Worth noting: pEC50 values are minus log10 of concentrations stated in mol/L.

Data request: For `C/C(=N\OCc1nc(-c2ccccc2)oc1C)c1ccc(OCC(=O)O)c(C)c1` , what is its reported pEC50?
Data returned: 6.10

Data request: For `CC/C(=N\OCc1sc(-c2ccc(C(F)(F)F)cc2)nc1C)c1ccc(OCC(=O)O)c(C)c1` , what is its reported pEC50?
Data returned: 6.10

Data request: For `Cc1cc(/C(=N/OCc2sc(-c3ccc(C(F)(F)F)cc3)nc2C)C2CCCCC2)ccc1OCC(=O)O` , what is its reported pEC50?
Data returned: 6.15
